target: human muscarinic M1 receptor (Homo sapiens, UniProt P11229); construct: expressed in transfected cells; experiment: Alphascreen Surefire phospho-ERK1/2 functional assay, M1; format: cell-based; settings: CHO cells stably expressing human M1; phospho-ERK1/2; read-out: pEC50 M1 (converted)
Sequence (P11229 whole entry): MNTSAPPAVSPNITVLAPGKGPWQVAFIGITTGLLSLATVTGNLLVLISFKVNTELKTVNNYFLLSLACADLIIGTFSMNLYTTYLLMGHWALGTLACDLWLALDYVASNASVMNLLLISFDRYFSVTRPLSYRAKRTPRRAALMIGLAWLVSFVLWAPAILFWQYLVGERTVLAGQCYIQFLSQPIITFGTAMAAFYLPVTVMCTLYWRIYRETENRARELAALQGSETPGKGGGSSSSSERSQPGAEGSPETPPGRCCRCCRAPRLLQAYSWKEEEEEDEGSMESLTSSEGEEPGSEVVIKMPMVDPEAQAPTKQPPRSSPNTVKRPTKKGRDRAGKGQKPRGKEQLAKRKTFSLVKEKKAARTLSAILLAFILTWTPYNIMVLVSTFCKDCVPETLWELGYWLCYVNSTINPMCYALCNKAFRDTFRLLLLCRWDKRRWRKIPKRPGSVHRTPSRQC
Measured log10 EC50 values are reported for all entries that follow.
Log scale reminder: EC50 in nM, then log10 taken.

CCOC(=O)N1CCC2(CC(N3CCC4(CC3)CN(CC(C)C)C(=O)O4)C2)C1 (single isomer, unassigned) [4-9 Isomer 2]; 3.00
CCOC(=O)N1CC2(CC(N3CCC4(CC3)OC(=O)N(CC)C4(C)C)C2)C1; 3.00
CCCN1CC2(CCN(C3CC4(CCN(C(=O)OCC)C4)C3)CC2)OC1=O (single isomer, unassigned) [4-7 Isomer 2]; 2.80
CCC1N(CC)C(=O)OC12CCN(C1CC3(CCN(C(=O)OC)C3)C1)CC2 (single isomer, unassigned) [4-21 Isomer 2 (racemic)]; 2.90
CCOC(=O)N1CCC2(CC(N3CCC4(CC3)OC(=O)NC4C3CCC3)C2)C1 (single isomer, unassigned) [4-15 Isomer 1 (racemic)]; 2.70

Task: # log10 EC50 lookup, item CCOC(=O)N1CCC2(CC(N3CCC4(CC3)OC(=O)NC4Cc3ccccn3)C2)C1 (single isomer, unassigned) [4-19 Isomer 2 (racemic)]
Output: 2.30

Task: # log10 EC50 lookup, item CCCN1C(=O)OC2(CCN(C3CC4(CCN(C(=O)OCC)C4)C3)CC2)C1(C)C (single isomer, unassigned) [4-37 Isomer 1]
Output: 2.60

Task: # log10 EC50 lookup, item CCC1NC(=O)CC12CCN(C1CC3(CCN(C(=O)OC)C3)C1)CC2 (single isomer, unassigned) [3-4 Isomer 4]
Output: 1.80

Task: # log10 EC50 lookup, item CCOC(=O)N1CC2(CC(N3CCC4(CC3)OC(=O)NC4CC)C2)C1 (single isomer, unassigned) [2-1 Isomer 2]
Output: 2.20

Task: # log10 EC50 lookup, item CCOC(=O)N1CCC2(CC(N3CCC4(CC3)CC(=O)NN4C(C)C)C2)C1 (single isomer, unassigned) [6-5 Isomer 2]
Output: 3.30

Task: # log10 EC50 lookup, item CCCN1C(=O)OC2(CCN(C3CC4(CCN(C(=O)OCC)C4)C3)CC2)C1CC (single isomer, unassigned) [4-23 Isomer 4]
Output: 2.50
